- System: RPLP1 mRNA
- ASSAY METHOD TEXT: Target mRNA reduction by RT-qPCR in HepG2.2.15 cells
- Format: cell-based, human
- COND: 10 nM siRNA
// Target RNA reduction in HepG2.2.15 cells lookup, one value per entry
Please respond with the number in % and leave the unit unwritten.

Reference set (5 entries):
- SUBSTANCE: "33 (UUGGUCUUUUUGACUAAACCUUUAGGUUUAGUCAAAAAGACCAAUU; siRNA; Self-complementary hairpin strand, chemistry not given here, further chemistry not given here; listed as Homo sapiens) [compound 33]"
  MEASURED METRIC: "Target RNA reduction in HepG2.2.15 cells"
  UNIT ABBREV: "%"
  VALUE MEASURED: 83
- SUBSTANCE: "32 (AGAAGAAAGUGGAAGCAAAGAUUUCUUUGCUUCCACUUUCUUCUUU; siRNA; Self-complementary hairpin strand, chemistry not given here, further chemistry not given here; listed as Homo sapiens) [compound 32]"
  MEASURED METRIC: "Target RNA reduction in HepG2.2.15 cells"
  UNIT ABBREV: "%"
  VALUE MEASURED: 80
- SUBSTANCE: "28 (UAUGGCCUCUGUCUCCGAGCUUUAGCUCGGAGACAGAGGCCAUAUU; siRNA; Self-complementary hairpin strand, chemistry not given here, further chemistry not given here; listed as Homo sapiens) [compound 28]"
  MEASURED METRIC: "Target RNA reduction in HepG2.2.15 cells"
  UNIT ABBREV: "%"
  VALUE MEASURED: 80
- SUBSTANCE: "29 (UGUCUCCGAGCUCGCCUGCAUUUAUGCAGGCGAGCUCGGAGACAUU; siRNA; Self-complementary hairpin strand, chemistry not given here, further chemistry not given here; listed as Homo sapiens) [compound 29]"
  MEASURED METRIC: "Target RNA reduction in HepG2.2.15 cells"
  UNIT ABBREV: "%"
  VALUE MEASURED: 75
- SUBSTANCE: "25 (GAUCAAUGCCCUCAUUAAAGCTTUUUAAUGAGGGCAUUGAUCUUTT; siRNA; Self-complementary hairpin strand, chemistry not given here, further chemistry not given here; listed as Homo sapiens) [compound 25]"
  MEASURED METRIC: "Target RNA reduction in HepG2.2.15 cells"
  UNIT ABBREV: "%"
  VALUE MEASURED: 74

Short answer for 30 (AGGAUAAGAUCAAUGCCCUUCUUGAAGGGCAUUGAUCUUAUCCUUU; siRNA; Self-complementary hairpin strand, chemistry not given here, further chemistry not given here; listed as Homo sapiens) [compound 30] : Target RNA reduction in HepG2.2.15 cells was 78

31 (UUUGGCCUGGCUUGUUUGCAAUUUUGCAAACAAGCCAGGCCAAAUU; siRNA; Self-complementary hairpin strand, chemistry not given here, further chemistry not given here; listed as Homo sapiens) [compound 31] yielded Target RNA reduction in HepG2.2.15 cells of 84

Form field Target RNA reduction in HepG2.2.15 cells, entry 24 (GCAAAGAAAGAAGAAUCCGTTCGGAUUCUUCUUUCUUUGCTT; siRNA; Self-complementary hairpin strand, chemistry not given here, further chemistry not given here; listed as Homo sapiens) [compound 24] : 80

src = patent US11613750B2
